The origin of these recorded values is patent US11566007B2.

Measured IC50 by item
Target: KRAS WT (Homo sapiens (Human), UniProt P01116+P62937)
Sequence (P01116-2 other isoform, or with tags, fused parts or gaps): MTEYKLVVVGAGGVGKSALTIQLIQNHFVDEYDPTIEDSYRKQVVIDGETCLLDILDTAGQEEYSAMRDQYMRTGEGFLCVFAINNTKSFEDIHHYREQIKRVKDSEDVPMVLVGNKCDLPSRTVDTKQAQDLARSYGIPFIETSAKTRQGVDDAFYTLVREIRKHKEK
Sequence (P62937 whole entry): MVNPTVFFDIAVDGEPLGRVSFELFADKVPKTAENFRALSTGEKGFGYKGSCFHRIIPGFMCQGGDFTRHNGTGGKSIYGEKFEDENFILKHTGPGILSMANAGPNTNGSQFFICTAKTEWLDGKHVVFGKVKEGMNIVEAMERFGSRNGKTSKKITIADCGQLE
Assay: Ras-Raf (BRAF RBD) disruption / FRET / MOA assay, KRAS WT
Format: biochemical
Settings: read-out: IC50* KRAS WT FRET data

{"compound": "CO[C@@H](C)c1ncccc1-c1c2c3cc(ccc3n1CC(F)(F)F)-c1csc(n1)C[C@H](NC(=O)CCOC1CN(C(=O)C#CC(C)(C)N3CCC3)C1)C(=O)N1CCC[C@H](N1)C(=O)OCC(C)(C)C2 (atropisomer, axis not shown)", "tgt": "KRAS WT (Homo sapiens (Human), UniProt P01116+P62937)", "IC50": "1 to 10 µM"}

C=CC(=O)N1CC(OCC(C(=O)N[C@H]2Cc3cccc(c3)-c3ccc4c(c3)c(c(-c3cccnc3[C@H](C)OC)n4CC(F)(F)F)CC(C)(C)COC(=O)[C@@H]3CCCN(N3)C2=O)C(C)C)C1 (mixture of isomers) yielded IC50 of > 10 µM

C=CC(=O)N1CCCC2(CCN(C(=O)N(C)[C@H](C(=O)N[C@H]3Cc4nc(cs4)-c4ccc5c(c4)c(c(-c4cccnc4[C@H](C)OC)n5CC)CC(C)(C)COC(=O)[C@@H]4CCCN(N4)C3=O)C(C)C)CC2)C1 (atropisomer, axis not shown) yielded IC50 of 0.1 to 1 µM

CCn1c(-c2cccnc2[C@H](C)OC)c2c3cc(ccc31)-c1cc(cc(C(F)F)c1)C[C@H](NC(=O)C(COC1CN(C(=O)C#CC(C)(C)N(C)C)C1)C(C)C)C(=O)N1CCC[C@H](N1)C(=O)OCC(C)(C)C2 (mixture of isomers) yielded IC50 of > 10 µM

C=CC(=O)N1CC[C@@]2(CCN([C@H](C(=O)N[C@H]3Cc4cccc(c4)-c4ccc5c(c4)c(c(-c4cccnc4[C@H](C)OC)n5CC)CC(C)(C)COC(=O)[C@@H]4CCCN(N4)C3=O)C(C)C)C2=O)C1 (atropisomer, axis not shown) yielded IC50 of 1 to 10 µM

CO[C@@H](C)c1ncccc1-c1c2c3cc(ccc3n1CC(F)(F)F)-c1cccc(c1)C[C@H](NC(=O)[C@H](C(C)C)N1CC[C@]3(CCN(C(=O)C#CC(C)(C)N(C)C)C3)C1=O)C(=O)N1CCC[C@H](N1)C(=O)OCC(C)(C)C2 (atropisomer, axis not shown) yielded IC50 of 1 to 10 µM

C=CC(=O)N1CC[C@H](C(=O)N(C)[C@H](C(=O)N[C@H]2Cc3coc(n3)-c3ccc4c(c3)c(c(-c3cccnc3[C@H](C)OC)n4CC)CC(C)(C)COC(=O)[C@@H]3CCCN(N3)C2=O)C(C)C)C1 (atropisomer, axis not shown) yielded IC50 of 1 to 10 µM

C=CC(=O)N(C)[C@H]1CCN(C(=O)N(C)[C@H](C(=O)N[C@H]2Cc3nc(cs3)-c3ccc4c(c3)c(c(-c3cccnc3[C@H](C)OC)n4CC)CC(C)(C)COC(=O)[C@@H]3CCCN(N3)C2=O)C(C)C)C1 (atropisomer, axis not shown) yielded IC50 of 0.1 to 1 µM

----------
Target: KRAS Q61H (Homo sapiens (Human), UniProt P01116+P62937, Q61H)
Sequence (P01116-2 other isoform, or with tags, fused parts or gaps Q61H): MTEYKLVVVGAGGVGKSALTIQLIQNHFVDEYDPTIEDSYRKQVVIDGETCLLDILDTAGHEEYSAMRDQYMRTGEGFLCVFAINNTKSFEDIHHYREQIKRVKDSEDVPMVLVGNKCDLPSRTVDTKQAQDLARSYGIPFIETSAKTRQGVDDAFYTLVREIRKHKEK
Sequence (P62937 whole entry): as the sequence (P62937 whole entry) above
Assay: Ras-Raf (BRAF RBD) disruption / FRET / MOA assay, KRAS Q61H
Assay type: biochemical
Details: Ras-Raf disruption/FRET/MOA assay; class symbols; read-out: KRAS Q61H FRET data IC50
property: IC50

Example results:
{"molecule": "CC#CC(=O)N1CC2(CCN2C(=O)N(C)[C@H](C(=O)N[C@H]2Cc3nc(cs3)-c3ccc4c(c3)c(c(-c3cccnc3[C@H](C)OC)n4CC)CC(C)(C)COC(=O)[C@@H]3CCCN(N3)C2=O)C(C)C)C1 (atropisomer, axis not shown)", "tgt": "KRAS Q61H (Homo sapiens (Human), UniProt P01116+P62937, Q61H)", "IC50": "10 to 100 nM"}
{"molecule": "C=CC(=O)N1CCOC2(C1)CN(C(=O)N(C)[C@H](C(=O)N[C@H]1Cc3nc(cs3)-c3ccc4c(c3)c(c(-c3cccnc3[C@H](C)OC)n4CC(F)(F)F)CC(C)(C)COC(=O)[C@@H]3CCCN(N3)C1=O)C(C)C)C2 (atropisomer, axis not shown)", "tgt": "KRAS Q61H (Homo sapiens (Human), UniProt P01116+P62937, Q61H)", "IC50": "100 to 1000 nM"}
{"molecule": "C=CC(=O)N(C)C1CCN(C(=O)N(C)[C@H](C(=O)N[C@H]2Cc3nc(cs3)-c3ccc4c(c3)c(c(-c3cccnc3[C@H](C)OC)n4CC)CC(C)(C)COC(=O)[C@@H]3CCCN(N3)C2=O)C(C)C)CC1 (atropisomer, axis not shown)", "tgt": "KRAS Q61H (Homo sapiens (Human), UniProt P01116+P62937, Q61H)", "IC50": "10 to 100 nM"}

Now turn to the next molecule.
C=CC(=O)N1CCC[C@@H]2CN(C(=O)N(C)[C@H](C(=O)N[C@H]3Cc4nc(cs4)-c4ccc5c(c4)c(c(-c4cccnc4[C@H](C)OC)n5CC)CC(C)(C)COC(=O)[C@@H]4CCCN(N4)C3=O)C(C)C)C[C@@H]21 (atropisomer, axis not shown) yielded IC50 of 100 to 1000 nM

----------
Target: KRAS WT (Homo sapiens (Human), UniProt P01116+P62937)
Test: Ras-Raf (BRAF RBD) disruption / FRET / MOA assay, KRAS WT
Type: biochemical
Details: read-out: IC50* KRAS WT FRET data
pIC50: −log10 of the molar value.
property: pIC50

Example results:
{"compound": "C=CC(=O)N1CC[C@H](C(=O)N(C)[C@H](C(=O)N[C@H]2Cc3cccc(c3F)-c3ccc4c(c3)c(c(-c3cccnc3[C@H](C)OC)n4CC)CC(C)(C)COC(=O)[C@@H]3CCCN(N3)C2=O)C(C)C)C1 (atropisomer, axis not shown)", "pIC50": "< 5.00"}
{"compound": "C=CC(=O)N1CC(C(=O)N(C)[C@H](C(=O)N[C@H]2Cc3cccc(c3)-c3ccc4c(c3)c(c(-c3cccnc3[C@H](C)OC)n4CC)CC(C)(C)COC(=O)[C@@H]3CCCN(N3)C2=O)C(C)C)C1 (atropisomer, axis not shown)", "pIC50": "< 5.00"}
{"compound": "C=CC(=O)N1CCOC2(CCN(C(=O)N(C)[C@H](C(=O)N[C@H]3Cc4nc(cs4)-c4ccc5c(c4)c(c(-c4cccnc4[C@H](C)OC)n5CC)CC(C)(C)COC(=O)[C@@H]4CCCN(N4)C3=O)C(C)C)CC2)C1 (atropisomer, axis not shown)", "pIC50": "6.00 to 7.00"}

CO[C@@H](C)c1ncccc1-c1c2c3cc(ccc3n1CC(F)(F)F)-c1nc(nn1C)C[C@H](NC(=O)[C@H](C(C)C)N(C)C(=O)C1(F)CCN(C(=O)C#CC(C)(C)N(C)C)CC1)C(=O)N1CCC[C@H](N1)C(=O)OCC(C)(C)C2 (atropisomer, axis not shown) yielded pIC50 of 6.00 to 7.00

`C=CC(=O)N1CC[C@H](C(=O)N(C)[C@H](C(=O)N[C@H]2Cc3cc(O)cc(c3)-c3cc4c(c(-c5ccccc5CCOC)n(CC)c4cn3)CC(C)(C)COC(=O)[C@@H]3CCCN(N3)C2=O)C(C)C)C1` yielded pIC50 of < 5.00

CO[C@@H](C)c1ncccc1-c1c2c3cc(ccc3n1CC(F)(F)F)-c1cnc(o1)C[C@H](NC(=O)[C@H](C(C)C)N(C)C(=O)[C@H]1CCN(C(=O)C#CC(C)(C)N(C)C)C1)C(=O)N1CCC[C@H](N1)C(=O)OCC(C)(C)C2 (atropisomer, axis not shown) yielded pIC50 of 5.00 to 6.00

CO[C@@H](C)c1ncccc1-c1c2c3cc(ccc3n1CC(F)(F)F)-c1cccc(c1)CN(NC(=O)[C@@H](COC1CN(C(=O)C#CC(C)(C)N(C)C)C1)C(C)C)C(=O)N1CCC[C@H](N1)C(=O)OCC(C)(C)C2 (atropisomer, axis not shown) yielded pIC50 of 5.00 to 6.00

`C=CC(=O)N1C[C@@H](C(=O)N(C)[C@@H](C(=O)N[C@H]2Cc3cc(O)cc(c3)-c3ccc4c(c3)c(c(-c3cccnc3COC)n4CC)CC(C)(C)COC(=O)[C@@H]3CCCN(N3)C2=O)C(C)C)C[C@H]1C` yielded pIC50 of 5.00 to 6.00

----------
Molecular target: KRAS WT (Homo sapiens (Human), UniProt P01116+P62937)
Assay: Ras-Raf (BRAF RBD) disruption / FRET / MOA assay, KRAS WT
Type: biochemical
Settings: read-out: IC50* KRAS WT FRET data
property: IC50

CC#CC(=O)N1CC[C@H](C(=O)N(C)[C@H](C(=O)N[C@H]2Cc3cccc(c3)-c3ccc4c(c3)c(c(-c3cccnc3[C@H](C)OC)n4C#N)CC(C)(C)COC(=O)[C@@H]3CCCN(N3)C2=O)C(C)C)C1 (atropisomer, axis not shown) yielded IC50 of > 10000 nM

CCn1c(-c2cccnc2[C@H](C)OC)c2c3cc(ccc31)N1CCO[C@@H](C[C@H](NC(=O)[C@H](C(C)C)N(C)C(=O)C3(F)CCN(C(=O)C#CC(C)(C)N(C)C)CC3)C(=O)N3CCC[C@H](N3)C(=O)OCC(C)(C)C2)C1 (atropisomer, axis not shown) yielded IC50 of 100 to 1000 nM
